target: SARS-CoV-2 Spike S1 (RBD) (Severe acute respiratory syndrome coronavirus 2); experiment: biochemical; assay type: binding; settings: read-out: Affinity (nM) of binding to SARS-COV2 Spike protein
observed.property: Kd

{"columns": ["smiles.record", "target.of.assay", "value.observed"],
 "data": [
  ["CC(C)c1c(C(=O)Nc2ccccc2)c(-c2ccccc2)c(-c2ccc(F)cc2)n1CC[C@@H](O)C[C@@H](O)CC(=O)O", "SARS-CoV-2 Spike S1 (RBD) (Severe acute respiratory syndrome coronavirus 2)", "234 to 456 nM"]
]}

---

target: SARS-CoV-2 Spike S1 (RBD) (Severe acute respiratory syndrome coronavirus 2, UniProt P0DTC2); experiment: biochemical; type: binding

{"columns": ["compound", "Kd"],
 "data": [
  ["CC(C)c1c(C(=O)Nc2ccccc2)c(-c2ccccc2)c(-c2ccc(F)cc2)n1CC[C@@H](O)C[C@@H](O)CC(=O)O [INS104, Atorvastatin]", "234 to 456 nM"]
]}

The reported measurements were obtained from patent US20230172849A1.
